Here, each record is paired with measured pKd data.
molecular target: T1, soluble human recombinant CD4 expressed in baculovirus (human, UniProt P01730 26-396, limits assumed); assay: SPR (BIAcore), CD4 immobilised
T1 construct: Coated on plates for the ELISA and covalently immobilised on the sensor for BIAcore; Only called soluble; also called soluble CD4; CD4 expressed in the baculovirus
pKd: −log10 of the molar value.
result_type: pKd

>>> endpoint_value("mutant Fab R53-H of the 13B8.2 antibody (Fab, V domains shown, Chimeric Fab with human CH1-γ1 and Cκ; baculovirus/Sf9) VH: QVQLKQSGPGLVQPSQSLSITCTVSGFSLTTFGVHWVRQSPGKGLEWLGVIWASGITDYNVPFMSRLSITKDNSKSQVFFKLNSLQPDDTAIYYCAKNDPGTGFAYWGQGTLVTVSA VL: DIQMTQSPASLSASVGETVTFTCRASENIYSYLAWYQQKQGKSPQLLVHDAKTLAEGVPSRFSGGGSGTQFSLKINTLQPEDFGTYYCQHHYGNPPTFGGGTKLEIK")
4.53
>>> endpoint_value("mutant Fab C92-H of the 13B8.2 antibody (Fab, V domains shown, Chimeric Fab with human CH1-γ1 and Cκ; baculovirus/Sf9) VH: QVQLKQSGPGLVQPSQSLSITCTVSGFSLTTFGVHWVRQSPGKGLEWLGVIWRSGITDYNVPFMSRLSITKDNSKSQVFFKLNSLQPDDTAIYYAAKNDPGTGFAYWGQGTLVTVSA VL: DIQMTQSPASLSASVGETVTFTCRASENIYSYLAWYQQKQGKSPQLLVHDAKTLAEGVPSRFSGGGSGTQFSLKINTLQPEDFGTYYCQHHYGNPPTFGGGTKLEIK")
8.43
